- subject.of.test: UniProt P10632
- Sequence (P10632 whole entry): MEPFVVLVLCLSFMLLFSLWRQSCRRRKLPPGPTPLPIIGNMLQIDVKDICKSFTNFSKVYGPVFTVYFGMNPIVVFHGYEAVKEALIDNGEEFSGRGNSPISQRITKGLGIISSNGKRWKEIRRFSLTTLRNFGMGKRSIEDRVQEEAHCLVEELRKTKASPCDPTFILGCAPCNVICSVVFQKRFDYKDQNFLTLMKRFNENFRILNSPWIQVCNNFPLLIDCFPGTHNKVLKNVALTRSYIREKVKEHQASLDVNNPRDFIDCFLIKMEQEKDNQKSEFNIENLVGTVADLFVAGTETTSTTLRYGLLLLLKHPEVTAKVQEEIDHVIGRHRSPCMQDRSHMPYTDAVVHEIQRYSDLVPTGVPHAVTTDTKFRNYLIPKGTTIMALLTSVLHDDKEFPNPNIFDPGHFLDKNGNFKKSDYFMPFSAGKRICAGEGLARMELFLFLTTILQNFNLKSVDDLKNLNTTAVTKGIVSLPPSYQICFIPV
- experimental.details: Inhibition of CYP2C8 in human liver microsomes assessed as enzyme-mediated metabolite formation at 30 uM using paclitaxel as substrate incubated for 5 mins followed by NADPH addition measured after 30 mins by LC-MS/MS analysis relative to control
- Type: ADME
- Parameters: scale not given: the % may be the effect or the level left
- test.conditions: probe paclitaxel, read-out: Activity
attribute.measured: activity at 0.5 h, 30 µM (%)
Respond with the bare value in %.

Prompt: API: value(readout=activity at 0.5 h, 30 µM, system=UniProt P10632) for record `CCCCCCCC(=O)CCc1ccc(O)c(OC)c1`
Completion: 35.5

---

- subject.of.test: CYP2C19 (Homo sapiens)
- Sequence (P33261 whole entry): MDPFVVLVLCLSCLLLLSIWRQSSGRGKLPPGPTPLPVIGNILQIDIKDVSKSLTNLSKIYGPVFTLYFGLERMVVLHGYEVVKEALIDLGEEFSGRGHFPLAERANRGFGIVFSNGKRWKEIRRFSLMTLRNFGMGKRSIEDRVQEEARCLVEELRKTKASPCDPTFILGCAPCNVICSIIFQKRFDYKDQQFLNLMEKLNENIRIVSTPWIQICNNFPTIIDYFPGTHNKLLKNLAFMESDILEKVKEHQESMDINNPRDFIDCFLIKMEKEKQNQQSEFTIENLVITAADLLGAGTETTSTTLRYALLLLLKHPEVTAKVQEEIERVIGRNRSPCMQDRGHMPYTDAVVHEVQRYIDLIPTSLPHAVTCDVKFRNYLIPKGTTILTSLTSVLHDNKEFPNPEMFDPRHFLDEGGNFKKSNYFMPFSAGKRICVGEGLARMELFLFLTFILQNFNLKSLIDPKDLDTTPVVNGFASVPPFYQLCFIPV
- experimental.details: Inhibition of CYP2C19 in human liver microsomes assessed as enzyme-mediated metabolite formation at 30 uM using (S)-mephenytoin as substrate preincubated for 20 mins followed by substrate addition measured after 30 mins in presence of NADPH by LC-MS/MS analysis relative to control
- Assay type: ADME
- Set-up: scale not given: the % may be the effect or the level left
- test.conditions: probe (S)-mephenytoin, read-out: Activity
attribute.measured: activity at 0.5 h, 30 µM (%)
Expressed in %, but write only the number.

Prompt: Which activity at 0.5 h, 30 µM value is on record for `CCCCCCCC(=O)CCc1ccc(O)c(OC)c1` ?
Completion: 36.8

---

- subject.of.test: UniProt:P10635
- Sequence (P10635 whole entry): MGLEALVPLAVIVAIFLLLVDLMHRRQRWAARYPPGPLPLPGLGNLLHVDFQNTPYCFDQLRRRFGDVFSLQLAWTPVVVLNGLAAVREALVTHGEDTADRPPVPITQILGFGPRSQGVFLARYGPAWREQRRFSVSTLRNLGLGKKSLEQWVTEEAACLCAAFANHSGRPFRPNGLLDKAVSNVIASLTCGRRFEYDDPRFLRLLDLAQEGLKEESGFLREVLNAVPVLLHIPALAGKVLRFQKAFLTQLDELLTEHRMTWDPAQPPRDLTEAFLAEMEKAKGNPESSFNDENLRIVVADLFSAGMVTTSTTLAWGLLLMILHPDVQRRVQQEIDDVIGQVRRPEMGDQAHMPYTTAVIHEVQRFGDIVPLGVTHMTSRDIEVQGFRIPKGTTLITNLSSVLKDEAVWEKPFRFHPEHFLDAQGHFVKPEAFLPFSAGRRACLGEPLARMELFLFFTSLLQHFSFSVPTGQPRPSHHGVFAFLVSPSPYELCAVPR
- experimental.details: Inhibition of CYP2D6 in human liver microsomes assessed as enzyme-mediated metabolite formation at 10 uM using dextromethorphan as substrate preincubated for 20 mins followed by substrate addition measured after 30 mins in presence of NADPH by LC-MS/MS analysis relative to control
- Type: ADME
- Design: scale not given: the % may be the effect or the level left
- test.conditions: probe dextromethorphan, read-out: Activity
attribute.measured: activity at 0.5 h, 10 µM (%)
Report the value in % with no unit label.

Prompt: Quick one: activity at 0.5 h, 10 µM of `CCCCCCCC(=O)CCc1ccc(O)c(OC)c1` ?
Completion: 99.4

---

- subject.of.test: CYP2C19 (Homo sapiens)
- experimental.details: Inhibition of CYP2C19 in human liver microsomes assessed as enzyme-mediated metabolite formation at 10 uM using (S)-mephenytoin as substrate preincubated for 20 mins followed by substrate addition measured after 30 mins in presence of NADPH by LC-MS/MS analysis relative to control
- Type: ADME
- Parameters: scale not given: the % may be the effect or the level left
- test.conditions: probe (S)-mephenytoin, read-out: Activity
attribute.measured: activity at 0.5 h, 10 µM (%)
Field: numeric (%). Do not append units.

Prompt: I am curious: what activity at 0.5 h, 10 µM value has been reported for `CCCCCCCC(=O)CCc1ccc(O)c(OC)c1` ?
Completion: 44.5

---

- subject.of.test: CYP2C9 (Homo sapiens)
- Sequence (P11712 whole entry): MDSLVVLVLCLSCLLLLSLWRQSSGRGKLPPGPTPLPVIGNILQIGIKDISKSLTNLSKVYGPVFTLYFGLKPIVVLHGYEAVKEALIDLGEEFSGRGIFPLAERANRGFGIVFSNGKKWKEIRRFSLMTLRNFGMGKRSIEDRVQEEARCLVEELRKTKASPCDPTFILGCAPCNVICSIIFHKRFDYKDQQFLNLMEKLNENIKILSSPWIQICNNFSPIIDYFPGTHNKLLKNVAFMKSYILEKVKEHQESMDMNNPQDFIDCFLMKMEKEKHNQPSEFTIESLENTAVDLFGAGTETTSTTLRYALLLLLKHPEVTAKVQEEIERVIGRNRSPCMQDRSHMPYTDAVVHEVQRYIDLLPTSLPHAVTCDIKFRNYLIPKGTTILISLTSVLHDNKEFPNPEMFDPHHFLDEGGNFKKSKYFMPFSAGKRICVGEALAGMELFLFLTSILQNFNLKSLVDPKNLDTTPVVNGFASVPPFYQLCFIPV
- experimental.details: Inhibition of CYP2C9 in human liver microsomes assessed as enzyme-mediated metabolite formation at 0.1 uM using diclofenac as substrate preincubated for 20 mins followed by substrate addition measured after 30 mins in presence of NADPH by LC-MS/MS analysis relative to control
- Format: ADME
- Design: scale not given: the % may be the effect or the level left
- test.conditions: probe diclofenac, read-out: Activity
attribute.measured: activity at 0.5 h, 0.1 µM (%)
Provide only the numeric value, understood in %.

Prompt: Quick one: activity at 0.5 h, 0.1 µM of `CCCCCCCC(=O)CCc1ccc(O)c(OC)c1` ?
Completion: 76
